# Assay Details: A CellTox Green Cytotoxicity Assay to monitor cytotoxicity in HepG2 cells - 0 hour (AID 1224882); further: nearly all actives have a fitted effect of over 35% in size
# Setup Conditions: CellTox Green fluorescence; series mostly up to 76.8 µM
Activity calls are given as the source filed them. The call rests on the fitted dose curve; in most records, active means well fitted activation curve with a large enough effect in the repeat runs; inconclusive means weak or mixed curves; inactive means flat fitted curve, though single readings scatter.
Measured Metric: outcome

Here is how some compounds turned out for outcome.
| Compound | Assay Value |
| --- | --- |
| CC(=O)O[C@]1(C(C)=O)CC[C@H]2[C@@H]3C=C(Cl)C4=CC(=O)[C@@H]5C[C@@H]5[C@]4(C)[C@H]3CC[C@@]21C | inactive |
| O=C1c2cccc(O)c2C(=O)c2c(O)cccc21 | inactive |
| O=S(=O)(O)c1ccc(O)cc1 | inactive |
| CN(C)C(=N)N=C(N)N | inactive |
| Brc1cc(Oc2cc(Br)c(Br)c(Br)c2Br)c(Br)c(Br)c1Br | inactive |

State the recorded outcome for every item in the following list.
1. Cc1ncc[nH]1
2. NNc1ccc(C(=O)O)cc1
3. CC(C)OB(OC(C)C)OC(C)C
4. O=P(O)(O)O
5. COc1ccc(OC)c(C(O)CNC(=O)CN)c1 (centres undefined)
6. CC(=O)c1ccccn1

Response given:
inactive
inactive
inactive
inactive
inactive
inactive

###

# Assay Details: qHTS assay to test for compound auto fluorescence at 460 nm (blue) in HepG2 cell free culture (AID 720685)
# Setup Conditions: Cell-free culture medium, blue autofluorescence 405/460 nm; series mostly up to 91.3 µM
Active and inactive are the calls of the source. Calls come from the whole dose curve; as a rule, active = well fitted curve in the direction sought with a large enough effect in the repeat runs; inconclusive = weak or mixed curves; inactive = flat fitted curve, though single readings scatter.
Measured Metric: outcome

Here is how some compounds turned out for outcome.
| Compound | outcome |
| --- | --- |
| CC(C)OC(=O)C(C)(C)Oc1ccc(C(=O)c2ccc(Cl)cc2)cc1 | inactive |
| CC(C)=CCCC(C)CCO (centres undefined) | inactive |
| O=Cc1ccccc1O | inactive |
| CC(CCC(=O)O)(c1ccc(O)cc1)c1ccc(O)cc1 | inactive |
| CC(=O)CC/C=C(\C)CCC=C(C)C | inactive |
| O=C(O)c1ccccc1Nc1cccc(C(F)(F)F)c1 | inactive |
| Cc1ncc[nH]1 | inactive |
| NNc1ccc(C(=O)O)cc1 | inactive |

State the recorded outcome for every item in the following list.
1. c1cc(N(CC2CO2)CC2CO2)ccc1OCC1CO1 (centres undefined)
2. O=c1oc(=O)c2cc3c(=O)oc(=O)c3cc12
3. C#C[C@]1(O)CC[C@H]2[C@@H]3CCC4=Cc5oncc5C[C@]4(C)[C@H]3CC[C@@]21C

Response given:
["inactive", "inactive", "inactive"]

State the recorded outcome for every item in the following list.
1. CCCCOCCOCCOCCO
2. CN(C)CCN(Cc1cccs1)c1ccccn1
3. CCC(C)CO (centres undefined)

Response given:
1. inactive
2. inactive
3. inactive

###

# Subject Of Test: Cytochrome P450 2C9 (Homo sapiens) (UniProt P11712)
# Sequence (P11712 whole entry, looked up): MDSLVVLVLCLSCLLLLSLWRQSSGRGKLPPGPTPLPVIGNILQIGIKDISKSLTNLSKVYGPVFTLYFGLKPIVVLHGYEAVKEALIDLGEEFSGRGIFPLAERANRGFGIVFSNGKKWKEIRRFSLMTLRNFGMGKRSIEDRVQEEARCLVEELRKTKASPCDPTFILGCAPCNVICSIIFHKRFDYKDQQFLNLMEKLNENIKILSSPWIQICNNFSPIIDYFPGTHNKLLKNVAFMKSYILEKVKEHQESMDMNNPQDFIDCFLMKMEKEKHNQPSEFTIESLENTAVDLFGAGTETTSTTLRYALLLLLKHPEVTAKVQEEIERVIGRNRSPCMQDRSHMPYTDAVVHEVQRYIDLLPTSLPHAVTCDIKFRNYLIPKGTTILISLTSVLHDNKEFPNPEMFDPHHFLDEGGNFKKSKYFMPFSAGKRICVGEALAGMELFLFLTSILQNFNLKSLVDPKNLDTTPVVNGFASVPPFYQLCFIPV
# Assay Details: Cytochrome P450 Family 2 Subfamily C Member 9 (CYP2C9) small molecule antagonists: luciferase reporter qHTS assay (AID 1671198); further: nearly all actives have a fitted effect of over 50% in size
# Setup Conditions: P450-Glo CYP2C9 enzyme assay, luciferin luminescence; series mostly up to 115 µM
Records with an inconclusive call do not appear. Active and inactive are the calls of the source. Calls follow the shape of the dose curve; as a rule, active = well fitted inhibition curve with a large enough effect in the repeat runs; inconclusive = weak or mixed curves; inactive = no such curve, though single readings can be large or run the other way.
Your response should consist of one outcome taken from true (active), false (inactive)

| Compound | Subject Of Test | Class |
| --- | --- | --- |
| O=Cc1ccccc1O | Cytochrome P450 2C9 (Homo sapiens) (UniProt P11712) | false |

Challenge: Give the logged outcome of this assay for the following compound: CCCCC(CC)COP(=O)(OCC(CC)CCCC)OCC(CC)CCCC (configuration not stated)
Response given: false

Challenge: Next: O=S(=O)(O)c1ccc(O)cc1
Response given: false

Challenge: Next: CCCCC(CC)COCC1CO1 (configuration not stated)
Response given: false

Challenge: Next: NC=O
Response given: false

Challenge: Next: NNc1ccc(C(=O)O)cc1
Response given: true

Challenge: Next: CCC(C)CO (configuration not stated)
Response given: false

###

# Assay Details: qHTS assay for small molecule agonists of the p53 signaling pathway - cell viability (AID 651633);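 further: p53RE-bla HCT reporter cells with a stable beta-lactamase p53 reporter; nearly all actives have a fitted effect of over 30% in size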
# Setup Conditions: p53RE-bla HCT-116 viability, ATP luminescence, 16 h; series mostly up to 83.3 µM
Results filed as inconclusive are left out. Active and inactive are the calls of the source. Calls come from the whole dose curve.
Your response should consist of one outcome taken from active, inactive

Check out these entries, answers already filled in.
| Compound | Class |
| --- | --- |
| O=CCCCC=O | inactive |
| O=C(OCc1ccccc1)c1ccccc1O | inactive |
| Cc1c(C(N)=O)cc([N+](=O)[O-])cc1[N+](=O)[O-] | inactive |

Challenge: Give the logged outcome of this assay for the following compound: Nc1ncnc2nc[nH]c12
Response given: inactive

Challenge: Next: Nc1ccccc1N
Response given: inactive

Challenge: Next: CCCCOCCOCCO
Response given: inactive

Challenge: Next: NNc1ccc(C(=O)O)cc1
Response given: inactive

Challenge: Next: CN(C)c1nc(N(C)C)nc(N(C)C)n1
Response given: inactive

Challenge: Next: COc1ccccc1/C=C/C=O
Response given: inactive

Challenge: Next: CC(=O)O[C@]1(C(C)=O)CC[C@H]2[C@@H]3C=C(Cl)C4=CC(=O)[C@@H]5C[C@@H]5[C@]4(C)[C@H]3CC[C@@]21C
Response given: inactive

Challenge: Next: O=C(c1ccccc1)c1ccc(O)cc1O
Response given: inactive

Challenge: Next: O=S(=O)(O)c1ccc(O)cc1
Response given: inactive

Challenge: Next: Cc1ccc2c(n1)Oc1ccc(C(C)C(=O)OCC(=O)N(C)C)cc1C2 (stereo not given)
Response given: inactive

Challenge: Next: Cc1ncc[nH]1
Response given: inactive

Challenge: Next: O=C(/C=C/C=C/c1ccc2c(c1)OCO2)N1CCCCC1
Response given: inactive

Challenge: Next: Cc1[nH]c(=O)c(C#N)cc1-c1ccncc1
Response given: inactive

Challenge: Next: O=C(/C=C/c1ccccc1)OCc1ccccc1
Response given: inactive

Challenge: Next: COC(=O)Nc1nc2ccc(S(=O)c3ccccc3)cc2[nH]1 (stereo not given)
Response given: inactive

Challenge: Next: CCCCOCCOCCOCCO
Response given: inactive

###

# Assay Details: qHTS assay to identify small molecule agonists of the retinoic acid receptor (RAR) signaling pathway (AID 1159553)
# Setup Conditions: C3RL4 RARE luciferase reporter, agonist, 6 h; series mostly up to 73.3 µM
Inconclusive results are not listed. The source made the active and inactive calls. The call rests on the fitted dose curve; in most records, active means well fitted activation curve with a large enough effect in the repeat runs; inconclusive means weak or mixed curves, or effect the other way; inactive means no such curve, though single readings can be large or run the other way.
Your response should consist of one outcome taken from yes (1) for active, no (0) for inactive

| Compound | Class |
| --- | --- |
| CC(C)Oc1ccc2c(=O)c(-c3ccccc3)coc2c1 | yes (1) |

Challenge: Give the logged outcome of this assay for the following compound: CC(C(=O)O)c1cccc(C(=O)c2ccccc2)c1 (stereo not drawn)
Response given: no (0)

Challenge: Next: Clc1nc(Cl)c(Cl)c(Cl)c1Cl
Response given: no (0)

Challenge: Next: CCC(C)CO (stereo not drawn)
Response given: no (0)

Challenge: Next: O=P(O)(O)O
Response given: no (0)

Challenge: Next: Cc1cccc([N+](=O)[O-])c1C
Response given: no (0)

Challenge: Next: CC(C)OC=O
Response given: no (0)

Challenge: Next: Cc1ccc(C)c(O)c1C
Response given: no (0)

###

# Assay Details: qHTS assay to identify small molecule antagonists of the constitutive androstane receptor (CAR) signaling pathway - cell viability counter screen (AID 1224837); further: nearly all actives have a fitted effect of over 45% in size
# Setup Conditions: HepG2-CYP2B6-hCAR viability, CellTiter-Fluor, 23 h, co-treated with 50 nM CITCO; series mostly up to 92.4 µM
# Protocol: National Center for Advancing Translational Sciences [NCATS] NIH Chemical Genomics Center [NCGC] U.S. Environmental Protection Agency [EPA] National Institutes of Environmental Health Sciences [NIEHS] National Toxicology Program [NTP] […] A double-stable (hCAR and CYP2B6-2.2kb) transfected cell line, derived from human hepatoma (HepG2) cells, was utilized for the duration of the quantitative high-throughput screens. […] The fluorescence intensity in the plates was then measured using a ViewLux plate reader.
Results filed as inconclusive are left out. Calls of active or inactive are those of the source. Calls come from the whole dose curve; as a rule, active = well fitted cell-killing curve with a large enough effect in the repeat runs; inconclusive = weak or mixed curves, or effect the other way; inactive = flat fitted curve, though single readings scatter.
Your response should consist of one outcome taken from 1.0 (active), 0.0 (inactive)

Check out these entries, answers already filled in.
| Molecule | Class |
| --- | --- |
| CC1=CCC(C(C)(C)O)CC1 (stereo unspecified) | 0.0 |
| CC(C(=O)O)c1cccc(C(=O)c2ccccc2)c1 (stereo unspecified) | 0.0 |
| O=C(/C=C/C=C/c1ccc2c(c1)OCO2)N1CCCCC1 | 0.0 |
| CC(C)=CCCC(C)CCO (stereo unspecified) | 0.0 |
| CCCCC(CC)COCC1CO1 (stereo unspecified) | 0.0 |
| O=C(OCc1ccccc1)c1ccccc1O | 0.0 |
| COC(=O)CCC(=O)OC | 0.0 |
| COc1ccccc1/C=C/C=O | 0.0 |

Challenge: Give the logged outcome of this assay for the following molecule: CCCCC/C=C/C=C/C=O
Response given: 0.0

Challenge: Next: COc1ccc(C(=O)CC(=O)c2ccc(C(C)(C)C)cc2)cc1
Response given: 0.0

Challenge: Next: CCCCCCCCCCCO
Response given: 0.0
